system: M. tuberculosis H37Rv growth inhibition with meropenem; test: dose response, H37Rv, with and without meropenem (AID 434987); conditions: measured here: IC90 with meropenem;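 also: growth over 7 days at 37 °C before Alamar Blue read on day 9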
Reported Property: IC90

Noted IC90 for C=C(C)C(=O)O[C@H]1C/C(C)=C\C(=O)/C=C(\C)[C@H](O)[C@@H]2OC(=O)C(=C)[C@@H]21 , tested on M. tuberculosis H37Rv growth inhibition with meropenem: 31.3 µM

***
Noted IC90 for Cc1oc(C(C)(C)C)cc1C(=O)Nc1ccc2c(c1)OCCO2 , tested on M. tuberculosis H37Rv growth inhibition with meropenem: > 100 µM

Noted IC90 for COc1ccccc1N(C)S(=O)(=O)c1ccc(C(=O)OCC(=O)N2CCCCCC2)cc1 , tested on M. tuberculosis H37Rv growth inhibition with meropenem: > 50 µM

Noted IC90 for Nc1nc2ccccc2n1C(=O)c1cccs1 , tested on M. tuberculosis H37Rv growth inhibition with meropenem: > 100 µM

Noted IC90 for CCOC(=O)c1sc(NC(=O)CN2CCN(c3ccc(OC)cc3)CC2)nc1C , tested on M. tuberculosis H37Rv growth inhibition with meropenem: > 100 µM

Noted IC90 for CSc1cccc(NC(=O)c2ccc(Cl)nc2)c1 , tested on M. tuberculosis H37Rv growth inhibition with meropenem: > 100 µM

Noted IC90 for Cc1ccc(C(=O)Nc2nc3ccccc3s2)s1 , tested on M. tuberculosis H37Rv growth inhibition with meropenem: > 100 µM

Noted IC90 for O=c1oc(-c2ccccc2)nc2sc3c(c12)CCC3 , tested on M. tuberculosis H37Rv growth inhibition with meropenem: > 100 µM

----------
tested on: M. tuberculosis H37Rv growth inhibition with meropenem; assay: dose response, H37Rv, with and without meropenem (AID 434987); conditions: measured here: IC90 with meropenem;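 also: growth over 7 days at 37 °C before Alamar Blue read on day 9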
Reported Property: IC90

Query Cc1ccccc1CSc1nnc(C)c(=O)n1N yields IC90 of 32.3 µM

Query O=C(O/N=C\c1ccc(N2CCCCC2)c([N+](=O)[O-])c1)c1c(F)cccc1F yields IC90 of > 100 µM

Switching to the query record.
Query CCCc1cc(C(=O)OCC(=O)N2CCN(c3ccc(OC)cc3)CC2)sc1C yields IC90 of > 100 µM

----------
tested on: M. tuberculosis H37Rv growth inhibition with meropenem; experiment: dose response, H37Rv, with and without meropenem (AID 434987); conditions: measured here: IC90 with meropenem;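 also: growth over 7 days at 37 °C before Alamar Blue read on day 9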
Attribute: IC90

Here's what some known entries look like.
Query COc1ccc(C(=O)Nc2ccc3nc(N4CCCCC4)cc(C)c3c2)c(OC)c1 yields IC90 of > 100 µM

Query O=C(/C=C/c1ccc2c(c1)OCO2)Nc1nc2ccccc2s1 yields IC90 of > 100 µM

Query COCCCn1c(=O)/c(=C\c2ccccc2OC(C)C)s/c1=C(/C#N)C(=O)Nc1ccc(C(=O)O)cc1 yields IC90 of 18.5 µM

Query CCOc1ccc2nc(SC3CC(=O)N(c4ccc(OC)cc4)C3=O)sc2c1 (stereo not drawn) yields IC90 of > 100 µM

***
Query COc1ccc(C(=O)NC(=S)Nc2ccc(S(=O)(=O)Nc3cc(C)on3)cc2)cc1OC yields IC90 of 29 µM

Query O=C(Cc1ccccc1)NC(=S)Nc1ccc(N2CCCCC2)cc1 yields IC90 of > 100 µM

Query Cc1ccc(OCC(=O)N/N=C/c2cn(C)c3ccccc23)cc1 yields IC90 of > 100 µM

meta.source: PubChem BioAssay AID434987
